The measured values listed here are drawn from ChEMBL document CHEMBL3526013.

TARGET: MRP4 (ABCC4) (Homo sapiens, UniProt O15439)
Sequence (O15439 whole entry): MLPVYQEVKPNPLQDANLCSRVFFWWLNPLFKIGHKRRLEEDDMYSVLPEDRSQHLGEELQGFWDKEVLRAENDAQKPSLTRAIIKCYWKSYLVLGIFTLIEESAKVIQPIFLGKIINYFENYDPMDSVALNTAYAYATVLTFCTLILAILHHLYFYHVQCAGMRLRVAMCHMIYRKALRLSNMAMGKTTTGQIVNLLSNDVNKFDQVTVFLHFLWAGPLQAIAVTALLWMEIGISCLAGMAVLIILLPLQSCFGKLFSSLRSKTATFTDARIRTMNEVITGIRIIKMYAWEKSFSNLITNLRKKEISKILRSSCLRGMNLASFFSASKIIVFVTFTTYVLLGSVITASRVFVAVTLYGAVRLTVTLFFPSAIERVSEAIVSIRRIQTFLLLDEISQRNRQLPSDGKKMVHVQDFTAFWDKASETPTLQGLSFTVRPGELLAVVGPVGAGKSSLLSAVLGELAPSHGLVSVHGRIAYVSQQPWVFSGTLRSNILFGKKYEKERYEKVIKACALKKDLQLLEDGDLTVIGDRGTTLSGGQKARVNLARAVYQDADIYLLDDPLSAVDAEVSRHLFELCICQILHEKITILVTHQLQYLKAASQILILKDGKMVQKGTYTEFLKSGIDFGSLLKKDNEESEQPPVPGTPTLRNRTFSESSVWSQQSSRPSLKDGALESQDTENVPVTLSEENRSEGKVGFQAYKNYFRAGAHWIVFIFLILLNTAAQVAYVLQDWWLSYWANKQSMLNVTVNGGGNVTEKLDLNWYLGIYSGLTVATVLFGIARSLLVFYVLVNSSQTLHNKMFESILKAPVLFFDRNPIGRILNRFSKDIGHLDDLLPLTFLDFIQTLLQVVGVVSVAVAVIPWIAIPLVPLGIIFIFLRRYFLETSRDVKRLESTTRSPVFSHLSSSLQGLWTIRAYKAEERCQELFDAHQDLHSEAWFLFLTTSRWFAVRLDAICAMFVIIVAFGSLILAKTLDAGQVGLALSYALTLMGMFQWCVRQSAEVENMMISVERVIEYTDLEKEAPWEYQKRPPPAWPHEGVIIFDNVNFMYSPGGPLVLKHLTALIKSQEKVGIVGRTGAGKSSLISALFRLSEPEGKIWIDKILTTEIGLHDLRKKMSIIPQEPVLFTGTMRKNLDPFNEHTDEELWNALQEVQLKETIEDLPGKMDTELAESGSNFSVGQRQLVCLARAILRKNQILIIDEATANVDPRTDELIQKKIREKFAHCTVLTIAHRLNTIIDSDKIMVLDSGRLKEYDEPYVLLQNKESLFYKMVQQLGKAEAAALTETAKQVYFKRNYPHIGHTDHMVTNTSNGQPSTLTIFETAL
ASSAY DETAILS: Inhibition of MRP4-mediated E2-17betaG transport in human MRP4 expressing HEK293 cells at 12 uM during 5 mins
Assay type: ADME, cell-based
CONDITION NOTES: probe E2-17betaG
PROPERTY LABEL: inhibition at 5 min, 12 µM (%)
Expressed in %, but write only the number.

Task: Return inhibition at 5 min, 12 µM for the following compound: CCN(C)S(=O)(=O)NC(=NC)N1CC(c2ccccc2)C(c2ccc(Cl)cc2)=N1 (stereo unspecified)
Output: -72
